test system: OVCAR-8 ovarian; assay: NCI tumour cell line growth inhibition, 48 h
In this section we review reported TGI values for a set of compounds.

>>> value_reported("CC(C)(C)[Si](C)(C)OCC1OC(n2cnc3c(N)ncnc32)C2OC(=S)OC12 (stereo unspecified)")
"> 100 µM"
>>> value_reported("CC(C#N)(c1ccccc1)N(CCc1ccccc1)C(=O)Oc1ccccc1 (stereo unspecified)")
"> 100 µM"
>>> value_reported("COC(=O)c1c2c(c(C)[n+]([O-])c1C)C(=O)C(NCc1ccc(OC)cc1)=CC2=O")
"> 100 µM"

Exercise: Quick check: TGI on OVCAR-8 ovarian, item CC(NCc1c(O)ccc2c(-c3ccccc3)cc(=O)oc12)C(=O)O (stereo unspecified) ?
Solution: > 100 µM
